B1: HDV Ribozyme (parent)
chain: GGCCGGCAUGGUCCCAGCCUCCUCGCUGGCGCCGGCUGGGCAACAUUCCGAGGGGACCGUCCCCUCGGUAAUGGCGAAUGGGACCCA

# Variants of: B1
# experimental details: self-cleavage, relative activity (ratio to wild type); higher = more cleavage; co-transcriptional
Record true (1) whenever self-cleavage is at 0.4 or higher; record false (0) when lower.

construct sequence: GGCCGGCAUGGUCCCCGCCUCCUAGCUGGCGCCGGCUGGGCAACAUUCCGAGGGGACCGUCCCCUCGGUAAUGGCGAAUGGGACCCA
assigned label: false (0)

construct sequence: GGCCGGCAUGGUCCCAGCCUCCUCGCUGGUGCCGUCUGGGCAACAUUCCGAGGGGACCGUCCCCUCGGUAAUGGCGAAUGGGACCCA
assigned label: false (0)

construct sequence: GGCCGGCAUGGUCCCAGCCUCCUCGCUGGCGCCGGCUGGGCAACAUUCCGAGGGGACCGUCCCCUUGGUAAUGGCGAAUGUGACCCA
assigned label: false (0)

construct sequence: AUCCGGCAUGGUCCCAGCCUCCUCGCUGGCGCCGGCUGGGCAACAUUCCGAGGGGACCGUCCCCUCGGUAAUGGCGAAUGGGACCCA
assigned label: true (1)

construct sequence: GGCCGGCAUGGUCCCAGCCUCCUCGCUGGCGCGGGCUGGGCAACAUUCCGAGGGGACCGUCCCCUCGAUAAUGGCGAAUGGGACCCA
assigned label: false (0)

construct sequence: GGCCGGCAUGGACCCAGCCUCCUCGCUGGCGCCGGCUGGGCAACAUUCCGAGGGGACCGUCCCCUCGGUAAUGACGAAUGGGACCCA
assigned label: false (0)

construct sequence: GGCCGGCAUGGUUCCAGCCUCUUCGCUGGCGCCGGCUGGGCAACAUUCCGAGGGGACCGUCCCCUCGGUAAUGGCGAAUGGGACCCA
assigned label: false (0)

construct sequence: GGCCGGCAUGGUCCCAGCCUCCUCGCUGGCGCCGGCUGGGCAACAUUCCAAGGGGACCGUCCCCUCGGAAAUGGCGAAUGGGACCCA
assigned label: true (1)

construct sequence: GACCGGCAUGGUCCCAGCCUCCUCGCUGGCUCCGGCUGGGCAACAUUCCGAGGGGACCGUCCCCUCGGUAAUGGCGAAUGGGACCCA
assigned label: false (0)

construct sequence: GGCCGGCAUGGUCCCAGCCUCAUCGCUGCCGCCGGCUGGGCAACAUUCCGAGGGGACCGUCCCCUCGGUAAUGGCGAAUGGGACCCA
assigned label: false (0)

construct sequence: GGCCGGCAUGGUCCCAGCCUCCUCGCUGGCGCCGGCUGGGCUACAUUCCGAGGGGACCGUUCCCUCGGUAAUGGCGAAUGGGACCCA
assigned label: true (1)

construct sequence: GGCCGGCAUGGUCCCAGCCUCCGCGCUGGCGCCGUCUGGGCAACAUUCCGAGGGGACCGUCCCCUCGGUAAUGGCGAAUGGGACCCA
assigned label: false (0)

construct sequence: GGCCGGCAUGGUCCCAGCCUCCUCGCUGGCGGCGGCUGGGCAACAUUCCGAGGGGACCAUCCCCUCGGUAAUGGCGAAUGGGACCCA
assigned label: false (0)

construct sequence: GGCCGGCAUGGUCCCAGCCUCCUCGCGGGCGCCGGCUGGGCAACAUUCCGAGGGGACCGUCCCCUCGGUAAUGGCGAAUGGGACCAA
assigned label: true (1)

construct sequence: GGCCAGCAUGGUCCCAGCCUCCUCGCUGGCGCCGACUGGGCAACAUUCCGAGGGGACCGUCCCCUCGGUAAUGGCGAAUGGGACCCA
assigned label: false (0)

construct sequence: GGCCGGCAUGGUCCCAGCCUCCUCGCUGGCGCCGGCUGGGCAACAGUCCGAGGGGACCGUCCCCUCGGUAAUGGCGAAUUGGACCCA
assigned label: false (0)

construct sequence: GGCCGGCAGGGUCCCAGCCUCCUCGCUGGCGCCGGCUGGGCAACAUCCCGAGGGGACCGUCCCCUCGGUAAUGGCGAAUGGGACCCA
assigned label: true (1)

construct sequence: GGCCGGCAUGGUCCCAGCCUCCACGCUGGCGCCGGCUGGGCAACAUUCCGAGGGGACGGUCCCCUCGGUAAUGGCGAAUGGGACCCA
assigned label: true (1)

construct sequence: GGCCGGUAUGGUCCUAGCCUCCUCGCUGGCGCCGGCUGGGCAACAUUCCGAGGGGACCGUCCCCUCGGUAAUGGCGAAUGGGACCCA
assigned label: true (1)

construct sequence: GGCUGGCAUGGUCCCAGCCUCCGCGCUGGCGCCGGCUGGGCAACAUUCCGAGGGGACCGUCCCCUCGGUAAUGGCGAAUGGGACCCA
assigned label: false (0)

construct sequence: GGCCGGCAUGGUCCCAGCCUCCUCGCUGGUGCCGGCUGGGCAACAUUCCGAGGGGACCGUCCCCUCGGUAAUGGCGAGUGGGACCCA
assigned label: false (0)

construct sequence: GGCCGGCAUGGUCCCAGCCUCCUCGCUGGCGCCGGCUGGGCAACAUUCCUAGGCGACCGUCCCCUCGGUAAUGGCGAAUGGGACCCA
assigned label: true (1)

construct sequence: GGCCGGCAUGGUCCCAGCCUCCUCGCUGGCGCCGGCUGGGCAACAUUCCGAGGGGACCGUCCGCUCGGUAAUGGCCAAUGGGACCCA
assigned label: true (1)

construct sequence: GGCCGGCAUGGUCCCAGCCUCCUCGCUGGCGCCGGAUGGGCAACAUUCCGAGGGGACUGUCCCCUCGGUAAUGGCGAAUGGGACCCA
assigned label: false (0)

construct sequence: GGCCGGCAUGGUCCUAGCCUCCUCGCUGGCGCCGGCUGGGCAACAUUCCGAGGGGACCGUCCCCUCGGUAAUGUCGAAUGGGACCCA
assigned label: true (1)

construct sequence: GGCCGGCAUGGUCCCAGCCUCCUCGCUGGCGCCGGCUGGGCAACAUUCCGAGGGGACCGUCCCCCCGGUAAUGGCGAAUUGGACCCA
assigned label: false (0)

construct sequence: GGCCGGCAUGGUCCCAGCCUCCUCGCUGGCGCCGGCUGGGCAACAUUCCGAGGGGACCGUCCCCUCGGUAAUGCCGCAUGGGACCCA
assigned label: false (0)

construct sequence: GGCCGGCAUGGUCCCAGCCUCCUCGCUGGCGCCGGCUGGGCAACAUUCCGAGGGGACCGUUCCCUCGGUAACGGCGAAUGGGACCCA
assigned label: false (0)

construct sequence: GGCCGGCAUGGACCCAGCCUCCUCGCUGGCGCCGGCUGGGCAACAUUCCGAGGGGACCGUCCCCUCGGUAAUGGCGUAUGGGACCCA
assigned label: false (0)

construct sequence: GGCCGGCAUGGUCCCAGCCUCCUCGCUGGCGCCAGCUGGGCAACAUUCCGAGGGGACCGUCCCCUCGGUAAUGGCGAAUCGGACCCA
assigned label: false (0)

construct sequence: GGCCGGCAUUGACCCAGCCUCCUCGCUGGCGCCGGCUGGGCAACAUUCCGAGGGGACCGUCCCCUCGGUAAUGGCGAAUGGGACCCA
assigned label: false (0)

construct sequence: GGCCGGCAUGGUCCCAGCCUCCUCGCUGGCGCCGGGUGGGCAACAUUCCGAGGGGACGGUCCCCUCGGUAAUGGCGAAUGGGACCCA
assigned label: false (0)

construct sequence: GGCCGGCAUGGUCCCAGCCUCCUCCCUGGCGCCGGCUGAGCAACAUUCCGAGGGGACCGUCCCCUCGGUAAUGGCGAAUGGGACCCA
assigned label: false (0)

construct sequence: GGCGGGCAUGGCCCCAGCCUCCUCGCUGGCGCCGGCUGGGCAACAUUCCGAGGGGACCGUCCCCUCGGUAAUGGCGAAUGGGACCCA
assigned label: false (0)

construct sequence: GGCCGGCGUGGUCCCAGCCUCCUCGCUGGCGCCGGCUGGGCAACAUUCCGAGGGGACCGUCCCCUCGGUAAUGCCGAAUGGGACCCA
assigned label: false (0)

construct sequence: GGCCGGCAUGGUCCCAGCCUCCUCGCUGGCGCCGGCUGGGCAACAUUCCGAGGGGACCGUCCCCUCGGUAAUGGCGAAUGGGAAGCA
assigned label: true (1)

construct sequence: GGCCGGCAUGGUACCAGCCUCCUCGCUGGCGCCGGCUGGGAAACAUUCCGAGGGGACCGUCCCCUCGGUAAUGGCGAAUGGGACCCA
assigned label: false (0)

construct sequence: GGCCGGCAUGGUCCCAGCCUCCUCGCUGGCGCCGGCUGGGCAACAUUCCGAGGGGUCCGUCCCCUCGUUAAUGGCGAAUGGGACCCA
assigned label: true (1)

construct sequence: GGCCGGCAUGGUCCCAGCCUCCUCGCUGGCGCCGGCUGGGCAACAUGCCGAGGGGACCGGCCCCUCGGUAAUGGCGAAUGGGACCCA
assigned label: true (1)

construct sequence: GGCCGGCAUGGUCCCAGCCUCGUCGCUGGCGCCGGCUGGGCAACAUUCCGAGGAGACCGUCCCCUCGGUAAUGGCGAAUGGGACCCA
assigned label: false (0)

construct sequence: GGCCGGCAUGGUUCCAGCCUCCUCGCUGGCGCCUGCUGGGCAACAUUCCGAGGGGACCGUCCCCUCGGUAAUGGCGAAUGGGACCCA
assigned label: false (0)

construct sequence: GGCCGGCAUGGUCCCAGCCUCCUCGCUGGCGCCGGCUGGGCAACAUUCCGAGGGGACAGUCCCCUCGGUAAUGGCGAAUGGGAGCCA
assigned label: true (1)
